A collection of molecules and their measured viability, T/C
System: KRAS PDC multicell spheroid viability
test_name: Anticancer human tumor 521955-158-R6-J3-PDC patient-derived pancreatic carcinoma cell line growth inhibition [KRAS2]
condition_notes: second compound 0.1 µM; first compound 0.1 µM; active compounds read low

| molecule | viability, T/C (%) |
| --- | --- |
| CC(C)NCC(C(=O)N1CCN(c2ncnc3c2C(C)CC3O)CC1)c1ccc(Cl)cc1 (stereo not given) + COc1cc2nc(C)nc(NC(C)c3cc(N)cc(C(F)(F)F)c3)c2cc1OC1CCOC1 | 90.2 |
| CC(=O)OC12COC1CC(O)C1(C)C(=O)C(O)C3=C(C)C(OC(=O)C(O)C(NC(=O)OC(C)(C)C)c4ccccc4)CC(O)(C(OC(=O)c4ccccc4)C21)C3(C)C (stereo not given) + COc1cc2nc(C)nc(NC(C)c3cc(N)cc(C(F)(F)F)c3)c2cc1OC1CCOC1 | 69.7 |
| COc1cc2nccc(Oc3ccc(NC(=O)C4(C(=O)Nc5ccc(F)cc5)CC4)cc3)c2cc1OC + C=CC(=O)N1CCN(c2nc(OCC3CCCN3C)nc3c2CCN(c2cccc4cccc(C)c24)C3)CC1CC#N | 102 |
| CC(C)NCC(C(=O)N1CCN(c2ncnc3c2C(C)CC3O)CC1)c1ccc(Cl)cc1 (stereo not given) + C=CC(=O)N1CCN(c2nc(OCC3CCCN3C)nc3c2CCN(c2cccc4cccc(C)c24)C3)CC1CC#N | 87.5 |
| CC(C)n1nc(-c2ccc3oc(N)nc3c2)c2c(N)ncnc21 + COc1cc2nc(C)nc(NC(C)c3cc(N)cc(C(F)(F)F)c3)c2cc1OC1CCOC1 | 49.1 |

###

Test system: KRAS PDC multicell spheroid viability
test_name: Anticancer human tumor 521955-158-R6-J3-PDC cell line growth inhibition [KRAS2]; active = viability on the fitted dose curve at most 10% of control; inactive = the rest;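 further: drug exposure lasted seven days; 100% = DMSO vehicle wells and lower means fewer viable cells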
condition_notes: second compound 10 µM; first compound 1 µM
Source text: Multicellular complex tumor spheroid response to RAS pathway inhibitors in combination with a targeted agents in patient-derived cell lines with oncogenic KRAS variants from multiple cancer types A high-throughput screen of multi-cell type tumor spheroids was designed to identify active combinations of targeted small molecules and KRAS pathway inhibitors. […] Compounds. […] If the clinical Cmax for an agent had not been determined, the highest concentration tested was 10 microM. […]
Labels: 1 = active, -1 = inactive

| compound | category_label |
| --- | --- |
| CC1(C)CCC(CN2CCN(c3ccc(C(=O)NS(=O)(=O)c4ccc(NCC5CCOCC5)c([N+](=O)[O-])c4)c(Oc4cnc5[nH]ccc5c4)c3)CC2)=C(c2ccc(Cl)cc2)C1 + COc1cc2nc(C)nc(NC(C)c3cc(N)cc(C(F)(F)F)c3)c2cc1OC1CCOC1 | -1 |
| COc1cc(Nc2ncc3c(n2)-c2ccc(Cl)cc2C(c2c(F)cccc2OC)=NC3)ccc1C(=O)O + CNCc1ccccc1-c1csc(C(C)Nc2nc(C)nc3cc(OC)c(OC)cc23)c1 | 1 |
| CCN1CCN(Cc2ccc(Nc3ncc(F)c(-c4cc(F)c5nc(C)n(C(C)C)c5c4)n3)nc2)CC1 + CC1OCC2(CCN(c3cnc(Sc4ccnc(N)c4Cl)c(N)n3)CC2)C1N | -1 |
| CCNC(=O)CC1N=C(c2ccc(Cl)cc2)c2cc(OC)ccc2-n2c(C)nnc21 (stereo unspecified) + CNCc1ccccc1-c1csc(C(C)Nc2nc(C)nc3cc(OC)c(OC)cc23)c1 | 1 |
| COc1cc2nccc(Oc3ccc(NC(=O)C4(C(=O)Nc5ccc(F)cc5)CC4)cc3)c2cc1OC + CC1OCC2(CCN(c3cnc(Sc4ccnc(N)c4Cl)c(N)n3)CC2)C1N | -1 |
| CC1COCCN1c1cc(-c2ccnn2C)c2ccnc(-c3ccn[nH]3)c2n1 (stereo unspecified) + C=CC(=O)N1CCN(c2nc(=O)n(-c3c(C)ccnc3C(C)C)c3nc(-c4c(O)cccc4F)c(F)cc23)C(C)C1 | -1 |

###

Test system: KRAS PDC multicell spheroid viability
test_name: Anticancer human tumor 521955-158-R6-J3-PDC cell line growth inhibition [KRAS2];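 further: drug exposure lasted seven days; 100% = DMSO vehicle wells and lower means fewer viable cells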
condition_notes: second compound 3.16 µM; first compound 0.0316 µM; active compounds read low
Just a reminder that ties go to rule not met: only viability, T/C strictly below 40% counts as rule met.

| molecule | category_label |
| --- | --- |
| CC(=O)Nc1cccc(-n2c(=O)n(C3CC3)c(=O)c3c(Nc4ccc(I)cc4F)n(C)c(=O)c(C)c32)c1 + C=CC(=O)N1CCN(c2nc(=O)n(-c3c(C)ccnc3C(C)C)c3nc(-c4c(O)cccc4F)c(F)cc23)C(C)C1 | rule not met |
| CC(=O)Nc1cccc(-n2c(=O)n(C3CC3)c(=O)c3c(Nc4ccc(I)cc4F)n(C)c(=O)c(C)c32)c1 + CNCc1ccccc1-c1csc(C(C)Nc2nc(C)nc3cc(OC)c(OC)cc23)c1 | rule met |
| COc1cc(Nc2ncc3c(n2)-c2ccc(Cl)cc2C(c2c(F)cccc2OC)=NC3)ccc1C(=O)O + C=CC(=O)N1CCN(c2nc(OCC3CCCN3C)nc3c2CCN(c2cccc4cccc(C)c24)C3)CC1CC#N | rule met |
| CC(=O)Nc1cccc(-n2c(=O)n(C3CC3)c(=O)c3c(Nc4ccc(I)cc4F)n(C)c(=O)c(C)c32)c1 + COc1cc2nc(C)nc(NC(C)c3cc(N)cc(C(F)(F)F)c3)c2cc1OC1CCOC1 | rule met |

###

Test system: KRAS PDC multicell spheroid viability
test_name: Anticancer human tumor 521955-158-R6-J3-PDC cell line growth inhibition [KRAS2];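 further: drug exposure lasted seven days; 100% = DMSO vehicle wells and lower means fewer viable cells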
condition_notes: second compound 0.1 µM; first compound 0.1 µM; active compounds read low
Just a reminder that ties go to N: only viability, T/C strictly below 90% counts as Y.

| molecule | system_under_test | category_label |
| --- | --- | --- |
| CN(C)C/C=C/C(=O)Nc1cc2c(Nc3ccc(F)c(Cl)c3)ncnc2cc1O[C@H]1CCOC1 + CNCc1ccccc1-c1csc(C(C)Nc2nc(C)nc3cc(OC)c(OC)cc23)c1 | KRAS PDC multicell spheroid viability | Y |
| O=C(c1cc(Cc2n[nH]c(=O)c3ccccc23)ccc1F)N1CCN(C(=O)C2CC2)CC1 + CNCc1ccccc1-c1csc(C(C)Nc2nc(C)nc3cc(OC)c(OC)cc23)c1 | KRAS PDC multicell spheroid viability | Y |
| Cn1ncnc1[C@H]1c2n[nH]c(=O)c3cc(F)cc(c23)N[C@@H]1c1ccc(F)cc1 + C=CC(=O)N1CCN(c2nc(=O)n(-c3c(C)ccnc3C(C)C)c3nc(-c4c(O)cccc4F)c(F)cc23)C(C)C1 | KRAS PDC multicell spheroid viability | N |
| CC1COCCN1c1cc(-c2ccnn2C)c2ccnc(-c3ccn[nH]3)c2n1 (stereo not given) + CNCc1ccccc1-c1csc(C(C)Nc2nc(C)nc3cc(OC)c(OC)cc23)c1 | KRAS PDC multicell spheroid viability | Y |
| COc1cc(Nc2ncc3c(n2)-c2ccc(Cl)cc2C(c2c(F)cccc2OC)=NC3)ccc1C(=O)O + CC1OCC2(CCN(c3cnc(Sc4ccnc(N)c4Cl)c(N)n3)CC2)C1N | KRAS PDC multicell spheroid viability | N |
| COc1cc2nccc(Oc3ccc(NC(=O)C4(C(=O)Nc5ccc(F)cc5)CC4)cc3)c2cc1OC + CC1OCC2(CCN(c3cnc(Sc4ccnc(N)c4Cl)c(N)n3)CC2)C1N | KRAS PDC multicell spheroid viability | N |
| CC1(C)CCC(CN2CCN(c3ccc(C(=O)NS(=O)(=O)c4ccc(NCC5CCOCC5)c([N+](=O)[O-])c4)c(Oc4cnc5[nH]ccc5c4)c3)CC2)=C(c2ccc(Cl)cc2)C1 + COc1cc2nc(C)nc(NC(C)c3cc(N)cc(C(F)(F)F)c3)c2cc1OC1CCOC1 | KRAS PDC multicell spheroid viability | N |
| CC(=O)OC12COC1CC(O)C1(C)C(=O)C(O)C3=C(C)C(OC(=O)C(O)C(NC(=O)OC(C)(C)C)c4ccccc4)CC(O)(C(OC(=O)c4ccccc4)C21)C3(C)C (stereo not given) + C=CC(=O)N1CCN(c2nc(=O)n(-c3c(C)ccnc3C(C)C)c3nc(-c4c(O)cccc4F)c(F)cc23)C(C)C1 | KRAS PDC multicell spheroid viability | Y |

###

A collection of molecules and their measured viability, T/C
System: KRAS PDC multicell spheroid viability
test_name: Anticancer human tumor 521955-158-R6-J3-PDC cell line growth inhibition [KRAS2];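 further: drug exposure lasted seven days; 100% = DMSO vehicle wells and lower means fewer viable cells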
condition_notes: second compound 10 µM; first compound 0.316 µM; active compounds read low

| molecule | viability, T/C, % |
| --- | --- |
| CC(C)NCC(C(=O)N1CCN(c2ncnc3c2C(C)CC3O)CC1)c1ccc(Cl)cc1 (stereo not given) + CNCc1ccccc1-c1csc(C(C)Nc2nc(C)nc3cc(OC)c(OC)cc23)c1 | 0.24 |
| COc1cc2nccc(Oc3ccc(NC(=O)C4(C(=O)Nc5ccc(F)cc5)CC4)cc3)c2cc1OC + C=CC(=O)N1CCN(c2nc(=O)n(-c3c(C)ccnc3C(C)C)c3nc(-c4c(O)cccc4F)c(F)cc23)C(C)C1 | 52.2 |
| CC1(C)CCC(CN2CCN(c3ccc(C(=O)NS(=O)(=O)c4ccc(NCC5CCOCC5)c([N+](=O)[O-])c4)c(Oc4cnc5[nH]ccc5c4)c3)CC2)=C(c2ccc(Cl)cc2)C1 + CC1OCC2(CCN(c3cnc(Sc4ccnc(N)c4Cl)c(N)n3)CC2)C1N | 114 |
| CCNC(=O)CC1N=C(c2ccc(Cl)cc2)c2cc(OC)ccc2-n2c(C)nnc21 (stereo not given) + CC1OCC2(CCN(c3cnc(Sc4ccnc(N)c4Cl)c(N)n3)CC2)C1N | 76.4 |
| COC(=O)c1ccc2c(C(=Nc3ccc(N(C)C(=O)CN4CCN(C)CC4)cc3)c3ccccc3)c(O)[nH]c2c1 + CC1OCC2(CCN(c3cnc(Sc4ccnc(N)c4Cl)c(N)n3)CC2)C1N | 83.7 |
